system: ALL-PO; test: cells; type: functional, cell-based; conditions: Homo sapiens;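 also: growth inhibition of ALL-PO cells, read out by a cell viability assay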
Description: SANGER: Inhibition of human ALL-PO cell growth in a cell viability assay.
In this section we review reported IC50 values for a set of molecules.

Examples from the recorded data:
C=CCNC1=C2C[C@@H](C)C[C@H](OC)[C@H](O)[C@@H](C)/C=C(\C)[C@H](OC(N)=O)[C@@H](OC)/C=C\C=C(/C)C(=O)NC(=CC1=O)C2=O : > 1000 nM
Cc1cc([C@@H](C)Nc2ccccc2C(=O)O)c2nc(N3CCOCC3)cc(=O)n2c1 : > 5120 nM
CN(Cc1cnc2nc(N)nc(N)c2n1)c1ccc(C(=O)N[C@@H](CCC(=O)O)C(=O)O)cc1 [METHOTREXATE] : 5.86 nM
CCC(=O)N1CCN(c2ccc(-n3c(=O)ccc4cnc5ccc(-c6cnc7ccccc7c6)cc5c43)cc2C(F)(F)F)CC1 : 49.6 nM
CN(C)C/C=C/C(=O)Nc1cc2c(Nc3ccc(F)c(Cl)c3)ncnc2cc1O[C@H]1CCOC1 : > 500 nM

# return recorded IC50 for input `Cn1cc(C2=C(c3ccc(Cl)cc3Cl)C(=O)NC2=O)c2ccccc21`
> 10000 nM
